# System: K4 kissing-loop RNA reporter;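 note: bound reporter read as fluorescence of individual clusters on recovered sequencing chips by microscopy, with normalized cluster intensities fitted with a binding model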
# ASSAY NAME: apparent KD of K4 kissing-loop reporter; higher = weaker reporter binding
# MEASUREMENT PARAMETERS: Eterna round: R107; input ligand: tryptophan 2.4 mM
Record 1 whenever apparent KD of K4 kissing-loop reporter is at 200 nM or higher; record -1 when lower.

INSERT INTO results (sequence_string, category_label) VALUES
  ('UCCUGCAAUCGGCCACGAAAGUGGAUGGAUACCAGAGUCGAAAGACUCCCUUGGCAGCCAGUGAUGUUGGAAGCAGGUAAAUAAA', 1),
  ('GGUGUUGUUUGUGCUGUUUUCUUUGUUUCUCGAGGACCGGUACGGCCGCCACUCGAGUGAUGUUUGGGUAGUGAUGUUUGUUAGU [Bdazzled #1 Exc. TA]', 1),
  ('UGGAGUUGACGAAAAGUCAACUCCUGAGAUACCAGUGACGAAAGUCACCCUUGGCAGCUCACUGCCAGUGAUGUUGGUAAAUAAA [#OpenEnded 3]', -1);

Query string: # check: apparent KD of K4 kissing-loop reporter of GAUUUAGAGGCGGCCGCCACUAGUGAUGUUAGUGAUGUUUGAUACUGAAUAUAUCUGCGUUUAGAUAGGACCGGGCCAGAUGGAG [qzwqmullin] is greater than or equal to 200 nM
Result string: -1

Query string: # check: apparent KD of K4 kissing-loop reporter of AGUGUUAGGUUAGAUACCAGCCGUUCGUGAAUAAUCCUCGAACCGCCAGUGAUGUUGGCAGGCCCUUGGCAGCUAACAGAACAGA [Maxeusla] is greater than or equal to 200 nM
Result string: 1

Query string: # check: apparent KD of K4 kissing-loop reporter of AAUAAGGAGUGAUGUUCCAAGUGAUGUUAACGAGGACCGGUACGGCCGCCACUCGAUACGGCCGGAAAGUAAGAUAAACUAAAAU [Same State - Tryptophan A (Freestyle 2)] is greater than or equal to 200 nM
Result string: -1
